Assay: Surrogate Activity-Based Plasma Stability Assay
Assay type: in vitro ADME
Settings: rat
Where a SMILES comes first, the peptide text is derived from it. Bridges are numbered along the chain shown (N, C = ends). [ ]: non-standard residue; d: D form. pGlu = O=C1CC[C@@H](C(=O)O)N1; dNle = CCCC[C@@H](N)C(=O)O
PARAMETER: half-life (h)
Give just the number in h; leave the unit off.

molecule=CCCC[C@H](NC(=O)[C@@H]1CCCN1C(=O)CNC(=O)[C@H](CCCCN)NC(=O)[C@@H]1CSSC[C@H](NC(=O)[C@@H]2CCCN2C(=O)[C@H](CCCNC(=N)N)NC(=O)[C@@H]2CCC(=O)N2)C(=O)N[C@@H](CC(C)C)C(=O)N[C@@H](CO)C(=O)N1)C(=O)NCCc1ccccc1 parameter=half-life numeric_readout=0.718

We now examine a further molecule.
Briefly, half-life measured for CCCC[C@@H](NC(=O)[C@@H]1CCCN1C(=O)[C@H](C)NC(=O)[C@H](CCCCN)NC(=O)[C@@H]1CSSC[C@H](NC(=O)[C@H](CCCNC(=N)N)NC(=O)[C@@H]2CCC(=O)N2)C(=O)N[C@@H](CCCNC(=N)N)C(=O)N[C@@H](CC(C)C)C(=O)N[C@@H](CO)C(=O)N1)C(=O)N[C@H](C)C(=O)N[C@H](Cc1ccccc1)C(=O)O [Example 24, pE-R-C*-R-L-S-C*-K-A-P-(D-Nle)-a-f-OH] ([pGlu]RCRLSCKAP[dNle][dA][dF]-OH; disulfide 3-7) : 28.3
